tested on: K4 kissing-loop RNA reporter; experiment: apparent KD of K4 kissing-loop reporter; higher = weaker reporter binding; conditions: Eterna round: R107; input ligand: theophylline 20 uM
true (1) means recorded apparent KD of K4 kissing-loop reporter is 300 nM or above; false (0) means it is below 300 nM.

Q: Quick check: does AAUACUAUCAGAAGGAGCGUGGAAUAUUCAUCUGUAUCUAAUACGAGUGAUGUUCGUAAUUCACAGGUAGGUCGCUGAUCAAUAA [whbob_Ex_Arginine_B_2th156] have apparent KD of K4 kissing-loop reporter greater than or equal to 300 nM?
Result: false (0)

Q: Given the entry GGAAAUUGAUCAACGCAGUGAUGUUGCGAUACCAGACACAAAGCCGUCCCUUGGCAGCGCGGGACAUUAAUGGAUCUAUGGGUUC [theeternabot_exclusion_KL_Theo_A_26] , answer whether its apparent KD of K4 kissing-loop reporter meets or surpasses 300 nM.
Result: false (0)

Q: Please check the record GCAGUGAUGUUGCGCGAGUACGGUAGAGUACGAGGACCGGUACGGCCGCCACUCGUACGGAACUGGCUAAUUUAUGGAAUGGUGA [III] and state if its apparent KD of K4 kissing-loop reporter is at or above 300 nM.
Result: false (0)

Q: Say whether GACUCAUGUAGAAGGAGCGUCAGAAGCUACAGACAUGAGUGAUGUUCAUGUUAGUUGAUUUGACAGGUAGGUCGCUACAGCAGGA [KL-SSArg B15 #analogue] shows apparent KD of K4 kissing-loop reporter of 300 nM or more.
Result: false (0)

Q: Record GGUAGCAUGGCGGCCGCCACUUCAUAUGGAGUGAUGUUCCAGCAUCUUAUAAGACUGAGGUGAGGAAGGACCGGGCCAUGCUACC ; criterion: apparent KD of K4 kissing-loop reporter no lower than 300 nM. Met?
Result: true (1)

Q: Decide: is the reported value of apparent KD of K4 kissing-loop reporter for CCGAUGGGUACAGGAUAUGCCAGUGAUGUUGGUUUAGAUGGACCCAGAAGGAGACACCAGACGGAGGCAGAAGGGUAGCAAGGGA [Raarriis] equal to or greater than 300 nM?
Result: false (0)

* * *

system: MS2 coat protein; assay: apparent KD of MS2 coat protein; designed switch direction (-1 OFF switch, 1 ON switch): -1; higher = weaker reporter binding; settings: Eterna round: R95; input ligand: FMN 200 uM
EXPERIMENTAL READOUT: apparent KD of MS2 coat protein (nM)
Return type: number; implicit unit nM.

Q: May I ask what apparent KD of MS2 coat protein has been recorded for ACCACCUUAGUCAGGAUAUAGCUUCUAGCAAGAUACUAGAAGGGACAUGAGGAUCACCCAUGUAAAGGUGCUAA [Ramais] (puzzle: Brourd's mod of Exclusion 4) ?
Result: 25.3

Q: Endpoint output: apparent KD of MS2 coat protein of AAAACUGCCCAUGACCGCAAGCUUUUUGCUUGUCUUACCACAUGAGGAUCACCCAUGUGUCAUGGGCUCCUUAUAAA [Tisoanor] (puzzle: Sensor v3, turn-off variant 2) . Value?
Result: 12.7

Q: Would you kindly share the measured apparent KD of MS2 coat protein for ACAAGCUUCGAUAUCCUUAACAUGAGGAUCACCCAUGUUCGUCUUAUGAUGGUCUGAUCCCUGAGGAUCGGACCGUU [JL-sv1-2.09 Brourd Mod] (puzzle: Sensor v3, turn-off variant 1) ?
Result: 40.9

* * *

Kindly state apparent KD of K4 kissing-loop reporter for each of the entries shown.
tested on: K4 kissing-loop RNA reporter; test: apparent KD of K4 kissing-loop reporter; higher = weaker reporter binding; conditions: Eterna round: R107; input ligand: FMN 200 uM;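 also: bound reporter read as fluorescence of individual clusters on recovered sequencing chips by microscopy, with normalized cluster intensities fitted with a binding model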
Just the number in nM, nothing appended.

Q: What value of apparent KD of K4 kissing-loop reporter has been reported for the following sequence? AAUAACUUGCAGUGAUGUUGCAAGAAAGCUCAGGAUAUCAGGAAACUGAGAAGGGAGCAUCCUGAGCAAACAUCACAACUUAGGA [[K1]-[K2]-[F1]-[F2]-[F]'-[K]'-[F]''_Design2]
Result: 368

Q: Item UGGCGAGUGAUGUUCGUUGUUGUAGUGUGCCGAGGACCGGUACGGCCGCCACUCGGGUUGGUUGUUGUUGUUGUUGUUGUUGUUG [whbob_SS_tryp_A] has what recorded apparent KD of K4 kissing-loop reporter?
Result: 127

Q: Returns the measured apparent KD of K4 kissing-loop reporter for the input sequence. Input: GGAUAGGAUAGAGGAUAUGGUUUAUGCAGAAAUAACUUAUUGUGUAAAUCCAUAGGGAGUGAUGUUCCAGAAGGCUGUCCUAUCG [MatMod 15 - Jieux - Exclusion - FMN B]
Result: 316

Q: Need apparent KD of K4 kissing-loop reporter, item AAUAGGGAGUGAUGUUCCCUCACUUAUGAUACCAGUGCCAUCGGACACCCUUGGCAGCAUACGGGCAGUGAUGUUGUUCUUGGAA [Exclusion Theophylline A GF 25]
Result: 129

Q: Quick one: apparent KD of K4 kissing-loop reporter of UGUACCGAGUCAGGAUAUGGCGUCGAAAGACGAAUCGUAGUGAUGUUACGGAUCUGCGAAAGCAGUCCAGAAGGGACUUGGUACU [FmnBS 26 G37+C49] ?
Result: 125

* * *

system: MS2 coat protein; assay: apparent KD of MS2 coat protein; designed switch direction (-1 OFF switch, 1 ON switch): 1; higher = weaker reporter binding; details: Eterna round: R95; input ligand: FMN 200 uM
Label scheme for apparent KD of MS2 coat protein: lower than 90 nM is condition not met, 90 nM and above is condition met.

Q: Does the reported apparent KD of MS2 coat protein for AGUCCAGCCAGAGCUGGACAAAAGCAUGUACAUGAGGAUCACCCAUGUUCAUGUACAAGCUUUUUGCUCGUCUUAAU [Mat - hsa-mir-208a - Mod of JL - 59] (puzzle: Sensor for hsa-mir-208a) fall at or above the 90 nM mark?
Result: condition met

Q: Please check the record ACCCAAAGUAUAUGGGAACGAGCUUUUUAACAUGAGGAUCACCCAUGUACUCGUCUUAUAAGCAGUCGAAAGACUGC [Sensor 100 - 3] (puzzle: Sensor for hsa-mir-208a) and state if its apparent KD of MS2 coat protein is at or above 90 nM.
Result: condition met

Q: Textbook exercise: given the entry AGCAUACAUGAGGAUCACCCAUGUCAACUUAGUCGAGGAUAUGGGCAGCCGUGAGGCGAACCAGAAGGCGAAUUGA [Mat - Same State 1 - Mod of JL - D2] (puzzle: Same State 1) , state whether its apparent KD of MS2 coat protein is greater than or equal to 90 nM.
Result: condition not met

Q: Quick check: does UAGAGAGGAAGCGAGGAUAUCGUGUGAGGUACAUGAGGAUCACCCAUGUUUGAUGUUGAGAGAGGCGAGAAGGCGCAGGAGAUAA [JR_SS2_Sub085] (puzzle: Same State 2) have apparent KD of MS2 coat protein greater than or equal to 90 nM?
Result: condition not met

Q: Record AGUCCAGCGAAAGCUGGACAAAAGUAUGUACAUGAGGAUCACCCAUGUUCAUGUACAAGCUUUUUGCUCGUUUUAAA [JL mod - D95 - 19] (puzzle: Sensor for hsa-mir-208a) ; criterion: apparent KD of MS2 coat protein no lower than 90 nM. Met?
Result: condition met

Q: Could you tell me if the measured apparent KD of MS2 coat protein of AGUCCAGCCUGAGCUGGACAAAAGCAUGUACAUGAGGAUCACCCAUGUUCAUGUACUAGCUUUUUGCUCGUCUUGCC [salish99_208a_r3_108x] (puzzle: Sensor for hsa-mir-208a) reaches 90 nM or more?
Result: condition met

Q: Does the sequence UGGAUCUAGGCUUGCCUGGGUCCAUGCUGACAUGAGGAUCACCCAUGUGCAUUCUAUAAGCUUUUUGCUUGUCAGCU (puzzle: Sensor for hsa-mir-208a) have recorded apparent KD of MS2 coat protein that is 90 nM or more?
Result: condition met

Q: Dear colleague, could you confirm whether UAAAUACAUGAGGAUCACCCAUGUCAAAAGACAUGAGGAUAUGUACAGACUUCGGUCUGUACAGAAGGCAUGAAUA [salish99_ss1_r3_096] (puzzle: Same State 1) has apparent KD of MS2 coat protein at or above 90 nM?
Result: condition not met

Q: Quick check, apparent KD of MS2 coat protein >= 90 nM? AGCGAGAUAGGCAAGGAUAUGCUGGGUUGCACAUGAGGAUCACCCAUGUCAUUGGUUAUGGCCGAGCAGAAGGUGCAUUCUCUUU [ak bound state near shape] (puzzle: Same State 2)
Result: condition not met

Entry source: the supplement of paper PMC9170038
